# System Under Test: SARS-CoV-2 spike protein on live virus, strain USA-WA1/2020 (SARS-CoV-2, WA01/2020 strain, UniProt P0DTC2 14-1273)
# Experimental Details: cell-based or functional assay

| Binder | Live Neut, WA1/2020 IC50 (pM) |
| --- | --- |
| antibody 1589 (antibody, V domains shown) VH: EVQLVESGGGLIQVGGSLRLSCAASGLTVTSNYMNWVRQGPGKGLEWVSLIYSGGTTYYADSVKGRFTISRDDSKNTLYLQMNSLRAEDTAVYYCARPIVGARSGMDVWGQGTAVTVSS VL: DIQMTQSPSSLSASVGDRVTITCQASQDINKYLNWYQQKPGKAPKLLIYDASNLETGVPSRFSGSGSGTDFTFTISSLQPEDLATYYCHQFDNLPGTFGGGTKVEIK | 43 pM |
| antibody 1227 (antibody, V domains shown) VH: QMQLVQSGAEVKKTGSSVKVSCEASGYTFTNRYLHWVRQAPGQALEWMGWITPFQGNTNYAQKFQDRVTITRDMSMNTVYMELSSLRSEDTAKYYCASGGQYGAGSYYLEDWGQGTLVTVSS VL: EIVMTQSPATLSVSPGERATLSCRASQSVRSNLAWYRQKPGQAPRLLIYGASTRATGVPARFSGSGSGTEFTLTISSLQSEDFAVYYCQQYINWPPLTFGGGTRVEIK | 1490 pM |
